Reported normalized RNA/DNA level without ligand (log10) values for a set of variants
B1: library; a variant is named by its letters at N, in order (parent)
chain: GCUGUCACCGAGAAACUGUGAAGUAUAUCUUAAACCUGGGCACUUAAAAGAUAUAUGGAGUUAGUAGUGCAACCUGCUCGGUCUGAUGAGUCCNNNNNNGGACGAAACAGC

Variants of: B1
method-notes: normalized RNA/DNA level without ligand (relative to sTRSVctl = 100) (log10 (% of sTRSVctl)); HEK293T; ligand: cyclic di-GMP (c-di-GMP-II aptamer); higher = less ribozyme self-cleavage, higher mRNA level
condition-summary: reporter: mCherry (pCS4076), ligand present: no
measured-quantity: normalized RNA/DNA level without ligand (log10)

{"residue-codes": "GCUGUCACCGAGAAACUGUGAAGUAUAUCUUAAACCUGGGCACUUAAAAGAUAUAUGGAGUUAGUAGUGCAACCUGCUCGGUCUGAUGAGUCCCGAAAUGGACGAAACAGC [CGAAAU]", "measured-result": 1.42}
{"residue-codes": "GCUGUCACCGAGAAACUGUGAAGUAUAUCUUAAACCUGGGCACUUAAAAGAUAUAUGGAGUUAGUAGUGCAACCUGCUCGGUCUGAUGAGUCCCGUUCCGGACGAAACAGC [CGUUCC]", "measured-result": 1.74}
{"residue-codes": "GCUGUCACCGAGAAACUGUGAAGUAUAUCUUAAACCUGGGCACUUAAAAGAUAUAUGGAGUUAGUAGUGCAACCUGCUCGGUCUGAUGAGUCCUUAAUUGGACGAAACAGC [UUAAUU]", "measured-result": 1.76}
{"residue-codes": "GCUGUCACCGAGAAACUGUGAAGUAUAUCUUAAACCUGGGCACUUAAAAGAUAUAUGGAGUUAGUAGUGCAACCUGCUCGGUCUGAUGAGUCCCUUGAGGGACGAAACAGC [CUUGAG]", "measured-result": 1.68}
{"residue-codes": "GCUGUCACCGAGAAACUGUGAAGUAUAUCUUAAACCUGGGCACUUAAAAGAUAUAUGGAGUUAGUAGUGCAACCUGCUCGGUCUGAUGAGUCCAACCUAGGACGAAACAGC [AACCUA]", "measured-result": 1.51}
{"residue-codes": "GCUGUCACCGAGAAACUGUGAAGUAUAUCUUAAACCUGGGCACUUAAAAGAUAUAUGGAGUUAGUAGUGCAACCUGCUCGGUCUGAUGAGUCCUCCCGGGGACGAAACAGC [UCCCGG]", "measured-result": 1.86}
{"residue-codes": "GCUGUCACCGAGAAACUGUGAAGUAUAUCUUAAACCUGGGCACUUAAAAGAUAUAUGGAGUUAGUAGUGCAACCUGCUCGGUCUGAUGAGUCCAAGAAGGGACGAAACAGC [AAGAAG]", "measured-result": 1.46}
{"residue-codes": "GCUGUCACCGAGAAACUGUGAAGUAUAUCUUAAACCUGGGCACUUAAAAGAUAUAUGGAGUUAGUAGUGCAACCUGCUCGGUCUGAUGAGUCCAAUUCAGGACGAAACAGC [AAUUCA]", "measured-result": 1.62}
{"residue-codes": "GCUGUCACCGAGAAACUGUGAAGUAUAUCUUAAACCUGGGCACUUAAAAGAUAUAUGGAGUUAGUAGUGCAACCUGCUCGGUCUGAUGAGUCCUAGGCUGGACGAAACAGC [UAGGCU]", "measured-result": 1.75}
{"residue-codes": "GCUGUCACCGAGAAACUGUGAAGUAUAUCUUAAACCUGGGCACUUAAAAGAUAUAUGGAGUUAGUAGUGCAACCUGCUCGGUCUGAUGAGUCCGUCCGUGGACGAAACAGC [GUCCGU]", "measured-result": 1.65}
{"residue-codes": "GCUGUCACCGAGAAACUGUGAAGUAUAUCUUAAACCUGGGCACUUAAAAGAUAUAUGGAGUUAGUAGUGCAACCUGCUCGGUCUGAUGAGUCCGCCUGAGGACGAAACAGC [GCCUGA]", "measured-result": 1.6}
{"residue-codes": "GCUGUCACCGAGAAACUGUGAAGUAUAUCUUAAACCUGGGCACUUAAAAGAUAUAUGGAGUUAGUAGUGCAACCUGCUCGGUCUGAUGAGUCCGCGCGGGGACGAAACAGC [GCGCGG]", "measured-result": 1.8}
{"residue-codes": "GCUGUCACCGAGAAACUGUGAAGUAUAUCUUAAACCUGGGCACUUAAAAGAUAUAUGGAGUUAGUAGUGCAACCUGCUCGGUCUGAUGAGUCCGAUUGCGGACGAAACAGC [GAUUGC]", "measured-result": 1.68}
{"residue-codes": "GCUGUCACCGAGAAACUGUGAAGUAUAUCUUAAACCUGGGCACUUAAAAGAUAUAUGGAGUUAGUAGUGCAACCUGCUCGGUCUGAUGAGUCCUGUCCGGGACGAAACAGC [UGUCCG]", "measured-result": 1.86}
{"residue-codes": "GCUGUCACCGAGAAACUGUGAAGUAUAUCUUAAACCUGGGCACUUAAAAGAUAUAUGGAGUUAGUAGUGCAACCUGCUCGGUCUGAUGAGUCCUGGCGUGGACGAAACAGC [UGGCGU]", "measured-result": 1.6}
{"residue-codes": "GCUGUCACCGAGAAACUGUGAAGUAUAUCUUAAACCUGGGCACUUAAAAGAUAUAUGGAGUUAGUAGUGCAACCUGCUCGGUCUGAUGAGUCCACGCAAGGACGAAACAGC [ACGCAA]", "measured-result": 1.47}
{"residue-codes": "GCUGUCACCGAGAAACUGUGAAGUAUAUCUUAAACCUGGGCACUUAAAAGAUAUAUGGAGUUAGUAGUGCAACCUGCUCGGUCUGAUGAGUCCCCAGUCGGACGAAACAGC [CCAGUC]", "measured-result": 1.68}
{"residue-codes": "GCUGUCACCGAGAAACUGUGAAGUAUAUCUUAAACCUGGGCACUUAAAAGAUAUAUGGAGUUAGUAGUGCAACCUGCUCGGUCUGAUGAGUCCUAGAAUGGACGAAACAGC [UAGAAU]", "measured-result": 1.56}
{"residue-codes": "GCUGUCACCGAGAAACUGUGAAGUAUAUCUUAAACCUGGGCACUUAAAAGAUAUAUGGAGUUAGUAGUGCAACCUGCUCGGUCUGAUGAGUCCGCUCUUGGACGAAACAGC [GCUCUU]", "measured-result": 1.66}
